Listed here: items and their measured melting point.

(Q) Tell me melting point reported for `NCCC(=O)Nc1ccccc1`
(A) 62 to 64 °C

----------
Assay metric: melting point

>>> test_value("O=C1NC(=O)C2(CCCC2)N1")
"140 to 142 °C"
>>> test_value("Nc1nc2ccccc2nc1N1CCCC1")
"149 to 151 °C"
>>> test_value("Cc1nnc2ccc(Br)cn12")
"149 to 151 °C"
>>> test_value("Nc1ccc(CC(=O)N2CCCC2)cc1")
"107 to 109 °C"
>>> test_value("CC(O)(Cc1ccccc1)C(=O)O (stereo unspecified)")
"90 to 92 °C"

(Q) Tell me melting point reported for `O=C(O)CCc1cc(Br)ccc1F`
(A) 84 to 86 °C

----------
Listed here: items and their measured melting point.

Below, each entry is followed by its recorded melting point result.
>>> test_value("O=C(O)c1nccnc1-c1nc2ccccc2s1")
"188 to 190 °C"
>>> test_value("COc1ccc(S(=O)(=O)Cl)cc1[N+](=O)[O-]")
"58 to 60 °C"
>>> test_value("N#Cc1cccc(S(=O)(=O)Nc2cn[nH]c2)c1")
"162 to 164 °C"
>>> test_value("O=C(O)c1cc(Cl)no1")
"139 to 141 °C"
>>> test_value("CN(C)c1ccc(C2NCC(CCl)O2)cc1 (stereo not drawn)")
"104 to 106 °C"

(Q) Tell me melting point reported for `Cn1c(=O)oc(=O)c2cc([N+](=O)[O-])ccc21`
(A) 180 to 182 °C

(Q) Tell me melting point reported for `CCOC(=O)c1nnc2ccccc2c1Cl`
(A) 53 to 55 °C

(Q) Tell me melting point reported for `Cc1cc(=O)n2nc(N)[nH]c2n1`
(A) 367 to 369 °C

(Q) Tell me melting point reported for `CCNc1nc(C(=O)O)cs1`
(A) 215 to 217 °C

----------
Assay metric: melting point

Below, each entry is followed by its recorded melting point result.
>>> test_value("COc1cccc(C(N)CC(=O)O)c1OC (stereo not drawn)")
"206 to 208 °C"
>>> test_value("O=C(O)c1cc(-c2ccccc2)nc2cccc(Br)c12")
"235 to 237 °C"
>>> test_value("COc1ccccc1CC(=O)NN")
"112 to 114 °C"
>>> test_value("c1n[nH]c2c1CCNC2")
"134 to 136 °C"
>>> test_value("COc1cc(C(N)=S)ccn1")
"117 to 119 °C"
>>> test_value("CC1CCc2c(sc3ncnc(Cl)c23)C1 (stereo not drawn)")
"119 to 121 °C"
>>> test_value("CC(C)(C)OC(=O)N1CCC(OCC(F)(F)F)(C(=O)O)CC1")
"259 to 261 °C"
>>> test_value("Cc1cc2c[nH]nc2c(C(=O)O)c1N")
"174 to 176 °C"

(Q) Tell me melting point reported for `Nc1cccc(-c2cn3cccnc3n2)c1`
(A) 125 to 130 °C

(Q) Tell me melting point reported for `Cc1c(C(=O)O)sc2nc[nH]c(=O)c12`
(A) 248 to 252 °C

(Q) Tell me melting point reported for `Nc1nncc(-c2cccc(Cl)c2)n1`
(A) 219 to 221 °C

(Q) Tell me melting point reported for `O=S(=O)(Cl)c1ccc2c(c1)CCC2`
(A) 33 to 42 °C

(Q) Tell me melting point reported for NC(=O)NC(C(=O)O)c1ccccc1 (stereo not drawn)
(A) 201 to 203 °C
